Test: CSF pharmacokinetics substudy
Type: in vivo, human
Settings: male, human, CSF, oral, 4 mg
recordedMetric: concentration at 12 h (ng/mL)
Your answer should be a plain number; it is taken to be in ng/mL.

Problem: Could you tell me which concentration at 12 h is on file for Nc1nnc(CN[C@@H]2C[C@H]2c2ccc(OCc3ccccc3)cc2)o1 [vafidemstat] ?
Solution: 0.55

----------
Assay: CSF pharmacokinetics substudy
Assay type: in vivo, human
Settings: male, human, plasma (unbound), oral, 4 mg
recordedMetric: concentration at 2 h (ng/mL)
Use ng/mL as the unit, but write only the number.

Problem: For Nc1nnc(CN[C@@H]2C[C@H]2c2ccc(OCc3ccccc3)cc2)o1 , what is its reported concentration at 2 h?
Solution: 0.59
